Tested on: ROCK2
Settings: concentration: 1 μM, replicates: in singlicate; n = 1;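 also: KINOMEscan kinase panel screen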
# %Inh >= 20% gives label 1, anything below gives label 0

Would you say CN1CCN(Cc2ccc(NC(=O)Nc3ccc(N(C)c4ccnc(Nc5ccc(CS(C)(=O)=O)cc5)n4)cc3)cc2)CC1.Cl shows %Inh at minimum 20%? label 1

Would you say COC(=O)Nc1nc2cc(Oc3ccc(NC(=O)Nc4cccc(SC)c4)cc3)ccc2[nH]1.Cl shows %Inh at minimum 20%? label 1

Would you say COc1cccc(C2=C(Nc3cccc(O)c3)C(=O)NC2=O)c1 shows %Inh at minimum 20%? label 0

Would you say CNc1nccc(-c2ccc3c(N)n[nH]c3c2)n1 shows %Inh at minimum 20%? label 1

Would you say CCOc1nccc(-c2c(-c3ccc(F)cc3)ncn2C2CCNCC2)n1 shows %Inh at minimum 20%? label 0

Would you say COc1ccc(C2=C(Nc3cccc(O)c3)C(=O)NC2=O)cc1 shows %Inh at minimum 20%? label 0

Would you say Cc1nn2c(=O)cc(N3CCO[C@H](C)C3)nc2n1Cc1cccc(Cl)c1Cl shows %Inh at minimum 20%? label 0

Would you say N#Cc1cnc2cc(-c3cnc(CNCCN4CCOCC4)s3)ccc2c1Nc1ccc(Oc2ccccc2)cc1 shows %Inh at minimum 20%? label 0

###

Test system: AAK1
Settings: concentration: 1 μM, replicates: in singlicate; n = 1
Experimental Readout: %Inh (%)
Answer with a number only, understood to be in %.

Find the measured %Inh of Cl.N#CCc1ccc(Nc2nccc(Nc3ccc(Oc4ccccc4)cc3)n2)cc1 and report it. 7

Find the measured %Inh of CN(C)CCOc1ccc(-c2cc(-c3ccc(Cl)c(O)c3)c(-c3ccncc3)[nH]2)cc1.Cl.Cl and report it. 0

Find the measured %Inh of CN1CCN(Cc2ccc(NC(=O)Nc3ccc(N(C)c4ccnc(Nc5ccc(CS(C)(=O)=O)cc5)n4)cc3)cc2)CC1.Cl and report it. 62

Find the measured %Inh of O=C(Nc1n[nH]c2nc(-c3ccccc3)ccc12)C1CC1 and report it. 100

###

Kindly state %Inh for each of the entries shown.
System: CDK4
Conditions: concentration: 1 μM, replicates: in singlicate; n = 1
Answer with a number only, understood to be in %.

Find the measured %Inh of Cc1cccc(Nc2nc(NCCN)ncc2C(N)=O)c1 [GSK1292139] and report it. 35

Find the measured %Inh of Cc1cc(-c2ccnc(Nc3cccc(C#N)c3)n2)cc(C)c1O [GSK1440913] and report it. 0

Find the measured %Inh of CCOc1nccc(-c2c(-c3ccc(F)cc3)ncn2C2CCNCC2)n1 [SB-249175] and report it. 26

Find the measured %Inh of COC(=O)Nc1nc2cc(Oc3ccc(NC(=O)Nc4cccc(SC)c4)cc3)ccc2[nH]1.Cl [GW697999] and report it. 49

Find the measured %Inh of CCNC(=O)/C=C/c1n[nH]c2cc(Sc3ccccc3C(=O)NC)ccc12 and report it. 1

Find the measured %Inh of COC(=O)Nc1nc2ccc(Oc3ccc(NC(=O)Nc4cc(C(F)(F)F)ccc4F)cc3)cc2[nH]1.Cl [GW654607] and report it. 26

Find the measured %Inh of O=C(O)C(F)(F)F.O=c1[nH]ccc2nc(N[C@@H]3CCNC3)nc(Nc3ccc4c(c3)S(=O)(=O)CC4)c12 [GSK2181306] and report it. 50

Find the measured %Inh of Nc1ncnc2scc(-c3ccc(NC(=O)Cc4cc(F)ccc4F)cc3)c12.O=C(O)C(F)(F)F [SB-731254-M] and report it. 0

Find the measured %Inh of COc1cc(Nc2nccc(N3CCC(NC(=O)Nc4ccc5c(c4)OCO5)C3)n2)cc(OC)c1OC (stereo not shown) [GSK1379766] and report it. 0

Find the measured %Inh of Cc1cc(-c2c(-c3ccc(F)cc3)ncn2CCCN2CCOCC2)nc(N)n1 [SB-222517] and report it. 24

Find the measured %Inh of COc1cccc(CC(=O)N2CCc3cc(-c4cn(C)c5ncnc(N)c45)ccc32)c1 [GSK2608899] and report it. 25

Find the measured %Inh of CN1CCN(Cc2ccc(NC(=O)Nc3ccc(N(C)c4ccnc(Nc5ccc(CS(C)(=O)=O)cc5)n4)cc3)cc2)CC1.Cl [GW827654] and report it. 65

Find the measured %Inh of Cc1ccc(O)cc1Nc1ccnc2cc(-c3ccc(CN4CCCCC4)o3)ccc12 [GW557777] and report it. 0

###

Tested on: MAP3K15
Details: concentration: 1 μM, replicates: in singlicate; n = 1
Kindly state %Inh for each of the entries shown.
Answer with a number only, understood to be in %.

Find the measured %Inh of O=C(O)C(F)(F)F.O=c1[nH]ccc2nc(N[C@@H]3CCNC3)nc(Nc3cc(Cl)cc(Cl)c3)c12 and report it. 26

Find the measured %Inh of CNc1nccc(-c2ccc3c(N)n[nH]c3c2)n1 and report it. 0

Find the measured %Inh of CS(=O)(=O)c1cccc(CNc2nc(Nc3ccc4c(c3)CCC(=O)N4)ncc2C(F)(F)F)c1 and report it. 0

Find the measured %Inh of CN(C)CCOc1ccc(-c2cc(-c3ccc(Cl)c(O)c3)c(-c3ccncc3)[nH]2)cc1.Cl.Cl and report it. 50

Find the measured %Inh of CC(C)c1nc(-c2cccc(NS(=O)(=O)c3c(F)cccc3F)c2)c(-c2ccnc(Nc3ccc(N4CCOCC4)nc3)n2)s1.Cl and report it. 7

Find the measured %Inh of Cc1ccc(O)cc1Nc1ccnc2ccc(C(C)(C)C)cc12 and report it. 26

Find the measured %Inh of Fc1cc(Cl)ccc1Nc1ccnc2cc(-c3ccc(CN4CCOCC4)o3)ccc12 and report it. 23

Find the measured %Inh of CN(C)c1ncnc2nc[nH]c12 and report it. 37

Find the measured %Inh of CN(c1ccc(F)c(NC(=O)c2cccc(OC(C)(C)C#N)c2Cl)c1)c1ccc2nc(NC(=O)C3CC3)sc2n1 and report it. 0

Find the measured %Inh of Fc1cc(Cl)ccc1Nc1ccnc2cc(-c3ccc(CN4CCSCC4)o3)ccc12 and report it. 0

Find the measured %Inh of O=C(Nc1n[nH]c2nc(-c3ccccc3)ccc12)C1CC1 and report it. 3

Find the measured %Inh of CSc1ccc(NC2=C(c3ccc(Cl)cc3)C(=O)NC2=O)cc1 and report it. 0

Find the measured %Inh of N#Cc1cnc2cc(-c3cnc(CNCCN4CCOCC4)s3)ccc2c1Nc1ccc(Oc2ccccc2)cc1 and report it. 0

Find the measured %Inh of Cl.Cl.NC(CNC(=O)c1cc(Br)c(-c2ccnc3[nH]ccc23)s1)c1ccccc1 (stereo not drawn) and report it. 16

Find the measured %Inh of CCNC(=O)/C=C/c1n[nH]c2cc(Sc3ccccc3C(=O)NC)ccc12 and report it. 5

Find the measured %Inh of Cl.N#CCc1ccc(Nc2nccc(Nc3ccc(Oc4ccccc4)cc3)n2)cc1 and report it. 21

Find the measured %Inh of O=C1NC(=O)C(c2ccccc2Cl)=C1Nc1cccc(Cl)c1 and report it. 0

Find the measured %Inh of COc1ccc(NC(=O)c2ccoc2)cc1-c1ccc(C(=O)NCC2CC2)cc1 and report it. 4

###

Tested on: CSNK1A1
Conditions: concentration: 1 μM, replicates: in singlicate; n = 1
Strictly below 20% in %Inh: y. Otherwise: n.

Find out if reported %Inh for COc1cccc(C2=C(Nc3cccc(O)c3)C(=O)NC2=O)c1 is less than 20% y

Find out if reported %Inh for COC(=O)Nc1nc2cc(Oc3ccc(NC(=O)Nc4cccc(SC)c4)cc3)ccc2[nH]1.Cl is less than 20% y

Find out if reported %Inh for CN(c1ccc(NC(=O)N2CCN(CCCN3CCOCC3)CC2)cc1)c1ccnc(Nc2ccc(CS(C)(=O)=O)cc2)n1.Cl is less than 20% n

Find out if reported %Inh for Fc1cc(Cl)ccc1Nc1ccnc2cc(-c3ccc(CN4CCOCC4)o3)ccc12 is less than 20% y

Find out if reported %Inh for CCn1c(-c2nonc2N)nc2c(-c3ccccc3)ncc(OCCCN)c21.O=C(O)C(F)(F)F.O=C(O)C(F)(F)F is less than 20% n

Find out if reported %Inh for O=C(O)C(F)(F)F.O=c1[nH]ccc2nc(N[C@@H]3CCNC3)nc(Nc3ccc4c(c3)S(=O)(=O)CC4)c12 is less than 20% n

Find out if reported %Inh for CC(=O)Nc1cn2nc(Oc3cccc(NC(=O)c4cccc(C(F)(F)F)c4)c3)ccc2n1 is less than 20% y

Find out if reported %Inh for Cc1ccc(O)cc1Nc1ccnc2ccc(C(C)(C)C)cc12 is less than 20% n

Find out if reported %Inh for COC(=O)Nc1nc2ccc(Oc3ccc(NC(=O)Nc4cc(C(F)(F)F)ccc4F)cc3)cc2[nH]1.Cl is less than 20% y

Find out if reported %Inh for Cc1cccc(Nc2nc(N[C@H]3CCCC[C@H]3N)ncc2C(N)=O)c1.Cl is less than 20% n

Find out if reported %Inh for CN(C)CCOc1ccc(-c2cc(-c3ccc(Cl)c(O)c3)c(-c3ccncc3)[nH]2)cc1.Cl.Cl is less than 20% n

Find out if reported %Inh for O=C(Nc1c(F)cccc1F)c1cc(C(=O)c2ccccc2F)c[nH]1 is less than 20% y

Find out if reported %Inh for NCCC(NC(=O)c1cc(Br)c(-c2ccnc3[nH]ccc23)s1)c1ccccc1.O=C(O)C(F)(F)F.O=C(O)C(F)(F)F (stereo not shown) is less than 20% n

Find out if reported %Inh for CN(c1ccc(NC(=O)Nc2cccc(Cl)c2)cc1)c1ccnc(N)n1.Cl is less than 20% y

Find out if reported %Inh for Cl.Cl.NC(CNC(=O)c1cc(Br)c(-c2ccnc3[nH]ccc23)s1)c1ccccc1 (stereo not shown) is less than 20% n

Find out if reported %Inh for COc1cccc2c(-c3ccncc3)c(-c3ccc(F)cc3)nn12 is less than 20% n

Find out if reported %Inh for CN1CCN(Cc2ccc(NC(=O)Nc3ccc(N(C)c4ccnc(Nc5ccc(CS(C)(=O)=O)cc5)n4)cc3)cc2)CC1.Cl is less than 20% n

Find out if reported %Inh for CNc1nccc(-c2ccc3c(N)n[nH]c3c2)n1 is less than 20% y

Find out if reported %Inh for CC(C)c1nc(-c2cccc(NS(=O)(=O)c3c(F)cccc3F)c2)c(-c2ccnc(Nc3ccc(N4CCOCC4)nc3)n2)s1.Cl is less than 20% n

Find out if reported %Inh for COc1cc(Nc2ccnc3cc(-c4ccncc4)ccc23)cc(OC)c1OC.Cl is less than 20% y

Find out if reported %Inh for Cc1ccc(Nc2ccnc(Nc3ccc(C)c(F)c3)n2)cc1O.Cl is less than 20% y

Find out if reported %Inh for COc1cccc(CC(=O)N2CCc3cc(-c4cn(C)c5ncnc(N)c45)ccc32)c1 is less than 20% y

Find out if reported %Inh for O=C(Nc1n[nH]c2nc(-c3cccc(O)c3)ccc12)C1CC1 is less than 20% y

Find out if reported %Inh for Cc1ccc(NC(=O)c2ccc(Cl)c(Cl)c2)cc1-c1ccc(C(=O)Nc2ccncc2)cc1 is less than 20% y

Find out if reported %Inh for Cn1cc(-c2ccc3c(c2)CCN3C(=O)Cc2cc(F)cc(F)c2F)c2c(N)ncnc21 is less than 20% y

Find out if reported %Inh for CN(C)CCNS(=O)(=O)c1ccc(-c2ccnc3[nH]ccc23)cc1 is less than 20% n

Find out if reported %Inh for O=C(O)C(F)(F)F.O=c1[nH]ccc2nc(N[C@@H]3CCNC3)nc(Nc3cc(Cl)cc(Cl)c3)c12 is less than 20% n

Find out if reported %Inh for COc1ccc(C)c(Nc2ccnc(Nc3ccc(-c4cnc[nH]4)cc3)n2)c1.Cl is less than 20% n

Find out if reported %Inh for Cc1ccccc1CC(=O)N1CCc2cc(-c3cn(C)c4ncnc(N)c34)ccc21 is less than 20% y

Find out if reported %Inh for O=C(Nc1n[nH]c2nc(-c3ccccc3)ccc12)C1CC1 is less than 20% y

Find out if reported %Inh for N#Cc1cnc2cc(-c3cnc(CNCCN4CCOCC4)s3)ccc2c1Nc1ccc(Oc2ccccc2)cc1 is less than 20% y

Find out if reported %Inh for CC(C)(C)c1ccc(C(=O)Nc2cn3cc(-n4ccnc4)ccc3n2)cc1 is less than 20% n

Find out if reported %Inh for COc1ccc(NC(=O)c2ccoc2)cc1-c1ccc(C(=O)NCC2CC2)cc1 is less than 20% y

Find out if reported %Inh for COC(=O)Nc1nc2ccc(Oc3ccc(CC(=O)Nc4cc(C(F)(F)F)ccc4F)cc3)cc2[nH]1 is less than 20% y
